Ref: patent US20250250357A1

target: T1, human MSLN-R3-his protein (human, UniProt Q13421 487-598); assay: ELISA on coated MSLN-R3; no antibody (blank)
T1 construct: Region 3 of human mesothelin, made in HEK293E cells, His-tagged; also called human MSLN-R3 protein; hMSLN-R3-his; not shown: His tag
T1 sequence (Q13421 495-606): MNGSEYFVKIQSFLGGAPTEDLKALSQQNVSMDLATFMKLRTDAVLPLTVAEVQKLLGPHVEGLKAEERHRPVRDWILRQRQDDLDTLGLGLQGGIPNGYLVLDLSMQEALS
valueType: OD450 (OD450)
Provide the reading as a plain figure in OD450.

In: Using the record for S009-F8-13.8 (antibody, human IgG1, kappa, V domains shown) VH: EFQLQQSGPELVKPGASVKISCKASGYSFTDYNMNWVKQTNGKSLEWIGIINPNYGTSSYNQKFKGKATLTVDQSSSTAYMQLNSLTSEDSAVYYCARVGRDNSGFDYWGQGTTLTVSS VL: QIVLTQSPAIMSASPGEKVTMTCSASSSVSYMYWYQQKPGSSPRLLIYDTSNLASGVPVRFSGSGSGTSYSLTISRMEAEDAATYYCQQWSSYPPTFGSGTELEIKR , state its measured OD450.
Out: 0.05

In: Using the record for S009-F8-31.22 (antibody, human IgG1, kappa, V domains shown) VH: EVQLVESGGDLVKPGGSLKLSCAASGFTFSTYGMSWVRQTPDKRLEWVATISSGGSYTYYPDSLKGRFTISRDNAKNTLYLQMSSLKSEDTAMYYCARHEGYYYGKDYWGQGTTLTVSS VL: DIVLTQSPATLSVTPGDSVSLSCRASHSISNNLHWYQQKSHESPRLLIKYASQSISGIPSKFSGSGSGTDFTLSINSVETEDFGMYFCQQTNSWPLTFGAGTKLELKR , state its measured OD450.
Out: 0.05

In: Using the record for S009-F8-5.15 (antibody, human IgG1, kappa, V domains shown) VH: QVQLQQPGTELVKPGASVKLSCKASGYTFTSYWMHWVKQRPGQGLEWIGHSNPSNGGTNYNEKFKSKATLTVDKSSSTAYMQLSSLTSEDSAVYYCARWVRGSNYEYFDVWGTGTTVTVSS VL: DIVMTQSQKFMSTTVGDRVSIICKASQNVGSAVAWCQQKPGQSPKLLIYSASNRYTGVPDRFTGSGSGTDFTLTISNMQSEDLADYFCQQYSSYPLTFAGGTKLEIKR , state its measured OD450.
Out: 0.05

In: Using the record for S009-F8-24.14 (antibody, human IgG1, kappa, V domains shown) VH: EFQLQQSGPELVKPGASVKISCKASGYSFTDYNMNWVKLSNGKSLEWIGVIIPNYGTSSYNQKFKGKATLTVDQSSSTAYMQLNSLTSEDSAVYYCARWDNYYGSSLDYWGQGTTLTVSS VL: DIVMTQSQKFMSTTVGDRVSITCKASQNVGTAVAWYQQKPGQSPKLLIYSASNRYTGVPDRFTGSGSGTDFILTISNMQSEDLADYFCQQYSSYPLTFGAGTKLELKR , state its measured OD450.
Out: 0.04

In: Using the record for S009-F8-28.23 (antibody, human IgG1, kappa, V domains shown) VH: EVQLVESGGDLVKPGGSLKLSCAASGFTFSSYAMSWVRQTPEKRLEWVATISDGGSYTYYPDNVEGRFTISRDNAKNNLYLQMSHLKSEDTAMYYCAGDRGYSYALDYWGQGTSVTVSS VL: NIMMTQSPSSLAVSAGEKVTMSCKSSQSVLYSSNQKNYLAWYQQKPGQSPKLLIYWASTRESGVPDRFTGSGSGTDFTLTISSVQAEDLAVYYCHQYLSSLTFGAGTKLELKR , state its measured OD450.
Out: 0.04

In: Using the record for S009-F8-36.12 (antibody, human IgG1, kappa, V domains shown) VH: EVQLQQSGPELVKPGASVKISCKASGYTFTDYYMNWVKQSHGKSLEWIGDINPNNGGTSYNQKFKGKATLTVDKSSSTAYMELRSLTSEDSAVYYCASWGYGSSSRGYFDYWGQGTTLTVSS VL: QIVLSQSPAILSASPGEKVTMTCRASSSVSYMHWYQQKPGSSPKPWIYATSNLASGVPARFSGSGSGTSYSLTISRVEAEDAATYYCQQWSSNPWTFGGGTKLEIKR , state its measured OD450.
Out: 0.04

In: Using the record for S009-F8-9.16 (antibody, human IgG1, kappa, V domains shown) VH: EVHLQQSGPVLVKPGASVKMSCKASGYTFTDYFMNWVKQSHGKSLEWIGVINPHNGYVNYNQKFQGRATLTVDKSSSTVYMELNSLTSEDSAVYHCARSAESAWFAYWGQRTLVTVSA VL: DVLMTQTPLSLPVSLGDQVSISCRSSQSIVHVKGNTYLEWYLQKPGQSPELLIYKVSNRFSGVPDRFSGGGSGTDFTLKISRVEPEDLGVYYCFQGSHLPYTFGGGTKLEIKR , state its measured OD450.
Out: 0.03

In: Using the record for S009-F8-4.5 (antibody, human IgG1, kappa, V domains shown) VH: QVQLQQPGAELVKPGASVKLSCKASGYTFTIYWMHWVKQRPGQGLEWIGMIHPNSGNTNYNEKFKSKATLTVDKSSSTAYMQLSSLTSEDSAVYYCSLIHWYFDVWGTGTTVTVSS VL: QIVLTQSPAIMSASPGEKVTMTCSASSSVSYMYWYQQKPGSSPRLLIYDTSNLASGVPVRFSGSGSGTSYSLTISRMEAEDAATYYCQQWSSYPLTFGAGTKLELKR , state its measured OD450.
Out: 0.06

In: Using the record for S009-F8-27.1 (antibody, human IgG1, kappa, V domains shown) VH: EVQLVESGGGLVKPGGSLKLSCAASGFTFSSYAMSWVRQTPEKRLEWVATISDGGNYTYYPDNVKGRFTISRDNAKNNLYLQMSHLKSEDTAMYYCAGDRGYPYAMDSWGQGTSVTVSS VL: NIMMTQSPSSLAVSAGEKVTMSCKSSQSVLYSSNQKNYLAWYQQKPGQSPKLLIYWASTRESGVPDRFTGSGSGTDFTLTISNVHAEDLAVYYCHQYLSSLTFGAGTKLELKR , state its measured OD450.
Out: 0.05

In: Using the record for S009-F8-18.9 (antibody, human IgG1, kappa, V domains shown) VH: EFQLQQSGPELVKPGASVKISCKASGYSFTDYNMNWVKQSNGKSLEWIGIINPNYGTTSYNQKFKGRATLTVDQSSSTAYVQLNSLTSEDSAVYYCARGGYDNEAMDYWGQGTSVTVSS VL: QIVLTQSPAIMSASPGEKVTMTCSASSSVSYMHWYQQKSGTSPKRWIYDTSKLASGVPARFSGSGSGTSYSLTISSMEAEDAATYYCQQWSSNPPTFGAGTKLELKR , state its measured OD450.
Out: 0.05
